assay: NCI Yeast Anticancer Drug Screen. Data for the bub3 strain (AID 167); details: S. cerevisiae bub3 mutant strain, at 50.0 µM, active compounds read high
About 79,000 compounds went through this panel and 15% of them were active in at least one assay; those are over-represented in the sample as a whole.
Classification field: condition met = growth inhibition at or over 70%; condition not met = growth inhibition under 70%.

Below, 4 molecules whose answers are already recorded.
Challenge: Test whether the molecule CCN(CC)CCNC(=O)c1nn(-c2ccc(Cl)cc2)c2c1CCc1cc(OC)ccc1-2 records growth inhibition of 70% or higher.
Response given: condition not met

Challenge: Test whether the molecule Cc1ccc2occ/c(=N\Nc3ccccc3)c2c1 records growth inhibition of 70% or higher.
Response given: condition met

Challenge: Test whether the molecule N#C/C(=C/N1C(=O)/C(=C/c2ccc([N+](=O)[O-])cc2)SC1=S)c1nc2ccccc2s1 records growth inhibition of 70% or higher.
Response given: condition met

Challenge: Test whether the molecule CCOC(=O)[C@]1(Br)CC[C@@]1(Br)C(=O)OCC records growth inhibition of 70% or higher.
Response given: condition met

Further cases:
Challenge: Test whether the molecule CC(C)(C)[OH+][O-].[O-]c1ccc(Cl)cc1C=Nc1ccc(Cl)cc1[O-].[O]=[V] records growth inhibition of 70% or higher.
Response given: condition met

Challenge: Test whether the molecule O/N=C/C1c2ccccc2-c2ccccc21 records growth inhibition of 70% or higher.
Response given: condition met

Challenge: Test whether the molecule Oc1ccc(Br)cc1C=NC1CCCCC1 records growth inhibition of 70% or higher.
Response given: condition met

Challenge: Test whether the molecule COC(=O)c1ccc2c(c1)Cc1ccccc1-2 records growth inhibition of 70% or higher.
Response given: condition not met

Challenge: Test whether the molecule C/C(=N\NC(=S)NNC(=S)N(C)c1ccccc1)c1ccccn1 records growth inhibition of 70% or higher.
Response given: condition met

Challenge: Test whether the molecule CCCCC(CC)C(=O)Oc1ccc(C(=O)c2ccccc2)c(O)c1 (centres undefined) records growth inhibition of 70% or higher.
Response given: condition met

Challenge: Test whether the molecule CCCCCCCCN1C(=O)c2ccccc2C1=O records growth inhibition of 70% or higher.
Response given: condition met

Challenge: Test whether the molecule COCCCN(Cc1cc(OC)c(OC)c(OC)c1)C(=S)Nc1cccc(Cl)c1 records growth inhibition of 70% or higher.
Response given: condition met

Challenge: Test whether the molecule COc1ccc(N=N/C(=N\NC(=O)c2cc(Br)ccc2O)c2ccc(N(CCC#N)CCC#N)cc2OC)cc1 records growth inhibition of 70% or higher.
Response given: condition not met

Challenge: Test whether the molecule O=NN(CCCl)C(=O)NCCCl records growth inhibition of 70% or higher.
Response given: condition not met

---

assay: NCI Yeast Anticancer Drug Screen. Data for the sgs1 mgt1 strain (AID 161);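 further: 0% = growth of cultures given vehicle only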; conditions: S. cerevisiae sgs1 mgt1 strain, at 5.0 µM (retest, dose inferred, filed as 0.5), active compounds read high
This is part of a sample that, as a whole, favours compounds with a hit. Of some 79,000 tested, about 15% had one in any assay.
Metric Name: growth inhibition (%)
Answers are plain numbers, in %.

Challenge: Read the entry Cn1ncc2cc3c(Nc4ccc(Cl)cc4)cccc3nc21 and write its reported growth inhibition.
Response given: -1

Go through the list and state growth inhibition for each entry.
1. C/C=C/[P+](c1ccccc1)(c1ccccc1)c1ccccc1
2. O=C1C=CC(=O)N1c1ccc2c(c1)OCO2
3. O=Nn1c2ccccc2c2ccccc21
4. O=C1C(Cl)=C(Cl)C(Cl)(Cl)C(Cl)C1(Cl)Cl (configuration not stated)
5. Cc1cccc(/C=N\NC(=S)N2CCCCC2)n1
6. COc1cc(CNc2ccc(C(C)C)cc2)cc(OC)c1OC
7. COc1ccc(N=Nc2ccc3oc(=O)c(C(=O)Nc4ccccc4)cc3c2)cc1
8. O=c1[nH]cc(/C=N\Nc2ccccc2)c(=O)[nH]1

Response given:
20
8
2
30
97
-7
12
-1

Go through the list and state growth inhibition for each entry.
1. COc1ccc(N2CN(C)CSC2=S)cc1
2. O=C1c2ccccc2C(=O)c2cc(S(=O)(=O)Nc3ccccc3)ccc21

Response given:
1: -20; 2: 51

Challenge: Read the entry O=C(NCCCCCN1CCC2(CCCCC2)CC1)C(C1CCCCC1)C1CCCCC1 and write its reported growth inhibition.
Response given: -15
